# measured-target: Phosphodiesterase 1 (Homo sapiens, UniProt P54750+Q01064+Q14123)
# experiment-summary: Inhibition of Calmodulin Sensitive Phosphodiesterase 1 from pig coronary artery
# Assay type: tissue-based, Sus scrofa
# assay-conditions: target entry is the homologue from another species
observed-property: I50 (µM)

CC(C)Cn1c(=O)n(C)c(=O)c2cc3c(cc21)ncn3Cc1ccccc1 :: 1.2
Cc1nc2c(ccc3c2c(=O)n(C)c(=O)n3CC(C)C)[nH]1 :: 15

P. CC(C)Cn1c(=O)n(C)c(=O)c2cc3ncn(Cc4ccccc4)c3cc21
Q. CC(C)Cn1c(=O)n(C)c(=O)c2[nH]c(C(C)(C)C)nc21
R. CC(C)Cn1c(=O)n(C)c(=O)c2c3ncn(Cc4ccccc4)c3ccc21
S. Cc1nc2cc3c(cc2[nH]1)c(=O)n(C)c(=O)n3CC(C)C
T. CC(C)CCn1c(=O)c2nc[nH]c2n(CC(C)C)c1=O
Put the items in order so that reported I50 rises from first to last. Note for the reader: the ranking is given by listing the labels in the order requested.
Q, P, R, S, T
(Q: 1.8 µM, P: 4.9 µM, R: 20 µM, S: 36 µM, T: 86 µM)

Where do these numbers come from? They come from ChEMBL document CHEMBL1123546.
